# log10 of EC50 per entry
Assayed Target: UniProt:P43220
Sequence (P43220 24-463): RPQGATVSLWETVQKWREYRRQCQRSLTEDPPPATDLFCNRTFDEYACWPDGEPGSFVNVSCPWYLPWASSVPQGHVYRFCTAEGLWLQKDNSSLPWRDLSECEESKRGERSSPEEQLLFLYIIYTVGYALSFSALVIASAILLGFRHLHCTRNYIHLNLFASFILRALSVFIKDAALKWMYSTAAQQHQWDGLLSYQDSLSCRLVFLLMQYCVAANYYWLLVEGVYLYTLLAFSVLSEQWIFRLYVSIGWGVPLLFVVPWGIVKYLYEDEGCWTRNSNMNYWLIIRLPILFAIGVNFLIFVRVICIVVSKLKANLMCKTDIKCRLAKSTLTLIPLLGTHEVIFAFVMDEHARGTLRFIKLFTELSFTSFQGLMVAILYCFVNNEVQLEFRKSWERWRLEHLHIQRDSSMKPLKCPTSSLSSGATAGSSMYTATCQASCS
Assay Protocol: GLP-1R agonist cAMP stimulation assay (HTRF cAMP)
Details: HEK293 cell line expressing GLP-1 target; HTRF cAMP agonist mode, 30 min at RT
Transform log10 | Measure EC50 | Unit nM

>  <Compound>
Cc1cc2c(C#N)ccc(COc3cccc(C4CCN(Cc5nc6cc(NC(=O)c7ccc8[nH]nc(C)c8c7)ccc6n5C[C@@H]5CCO5)CC4)n3)c2o1

>  <log10 of EC50>
0.71

$$$$
>  <Compound>
Cc1n[nH]c2c(C)cc(NC(=O)c3ccc4c(c3)nc(CN3CC=C(c5cccc6c5O[C@@](C)(c5ccc(Cl)cn5)O6)CC3)n4CC3CCO3)cc12 (stereo partly drawn)

>  <log10 of EC50>
-1.00

$$$$
>  <Compound>
COCCn1c(Cc2ccc(-c3cccc(OCc4ccc(C#N)cc4F)n3)cc2)nc2cc(NC(=O)CCc3ccccc3O)ccc21

>  <log10 of EC50>
2.28

$$$$

Prompt line: Which log10 of EC50 value belongs to `COC(=O)[C@@H]1C[C@H](O)CN1C(=O)CNC(=O)c1ccc2c(c1)nc(CN1CCC(c3cccc(OCc4ccc(C#N)cc4F)n3)CC1)n2C[C@@H]1CCO1` ?
Response line: 0.98

Prompt line: Likewise for `O=C(O)CNC(=O)c1ccc2c(c1)nc(CN1CCC(c3cccc(OCc4ccc(Cl)cc4F)n3)CC1)n2C[C@@H]1CCO1` ?
Response line: 1.53

Prompt line: Continue with Cc1n[nH]c2c(C)cc(C(=O)Nc3ccc4c(c3)nc(CN3CC=C(c5cccc6c5O[C@](C)(c5ccc(Cl)cc5F)O6)CC3)n4CC3CCO3)cc12 (stereo partly drawn)
Response line: -0.21
